Give growth for every item shown.
tested on: NCI-H522 lung; assay: NCI-60 one-dose screen, 48 h (100 = growth as untreated, 0 = no growth, -100 = all killed); conditions: 10 µM unless noted
Compounds without any hit were thinned out: in the full panel of roughly 83,000, 20% have a hit.
The response must be a number in % with no trailing unit.

Q. Requested read-out: growth. Entry: COc1ccc(OC)c(NCC(=O)n2nc(/C=C\c3ccc(O)c(OC)c3)cc2/C=C\c2ccc(O)c(OC)c2)c1
A. -19.3

Q. What do we get for Cc1ncc(CO)c(C(=O)O)c1O ?
A. 79.8

Q. What do we get for O=S(=O)(Nc1cccc2cc(OS(=O)(=O)c3ccccc3)ccc12)c1ccccc1 ?
A. 40.5

Q. What do we get for CN[C@@H](CCCNC(N)=NC/C=C(/C)CCC=C(C)C)C(=O)N(C)[C@@H](CCCNC(N)=NCC=C(C)C)C(=O)N[C@H](C)[C@H](OS(=O)(=O)O)c1ccc(OS(=O)(=O)O)c(COS(=O)(=O)O)c1 ?
A. 83.9

Q. What do we get for COc1ccc(C(=O)Cn2cnc3c(Nc4cc(C(=O)Nc5ccc(N6CCN(CCO)CC6)cc5)ccc4C)ncnc32)cc1 ?
A. 87.8

Q. What do we get for O=C(CNc1cccnc1)Nc1ccc(C(=O)/C=C/c2ccc(Cl)cc2)cc1 ?
A. 89.4

Q. What do we get for O=C(Nc1ccccc1Cl)c1c[nH]c(=O)c(-c2ccc(N3CCCOC4(CC4)C3)cc2)c1 ?
A. 53.6

Q. What do we get for c1ccc2nc(Cn3cc[n+](Cc4ccc5ccccc5n4)c3)ccc2c1 ?
A. 34.5

Q. What do we get for N#Cc1c(N)nc(Cl)c(C#N)c1C(=O)c1ccccc1 ?
A. 39.1

====

Give growth for every item shown.
tested on: MOLT-4 leukemia; test: NCI-60 one-dose screen, 48 h (100 = growth as untreated, 0 = no growth, -100 = all killed); conditions: 10 µM unless noted
The panel holds about 83,000 compounds, 20% with a hit somewhere; the sample as a whole holds those more often.
The response must be a number in % with no trailing unit.

Q. Test system MOLT-4 leukemia; read-out growth; what value for O=C(Nc1ccc(-n2ccc3c(NC(=O)c4ccccc4)nccc32)cc1)Nc1cccc(C(F)(F)F)c1 ?
A. 35.9

Q. What do we get for Cc1ncc(CO)c(C(=O)O)c1O ?
A. 82.5

Q. What do we get for FC(F)(F)c1cccc([Si](F)(c2cccc(C(F)(F)F)c2)c2cccc(C(F)(F)F)c2)c1 ?
A. 61.6

Q. What do we get for CN(C)c1ccc2cc(-c3nc4ccccc4s3)c(N)nc2c1 ?
A. 22.4

Q. What do we get for NS(=O)(=O)c1ccc(-n2nc(-c3ccc(Cl)cc3)ccc2=O)cc1 ?
A. 96.4

Q. What do we get for COc1ccc(/C=C/C(=O)c2ccc(Oc3ncnc4ccccc34)cc2)cc1OC ?
A. 56.6

Q. What do we get for C/C(=N\N=C1/SCC(=O)N1c1ccccc1)c1ccco1 ?
A. 112

Q. What do we get for C#C[C@@]1(O)[C@@H](CO)O[C@@H](n2cc(C(F)(F)F)c3c(N)ncnc32)[C@@H]1O ?
A. -8.68

Q. What do we get for O=C(Nc1cccc(-n2ccc3c(NC(=O)c4ccccc4)nccc32)c1)Nc1ccc(Cl)c(C(F)(F)F)c1 ?
A. 12.8

Q. What do we get for CCCCOc1c(N)cc(Cl)cc1C(=O)OCCN(CC)CC ?
A. 58.4

Q. What do we get for COc1ccc(-c2nnc(SCC(=O)Nc3ccc(C(=O)/C=C/c4ccc(Cl)cc4)cc3)o2)cc1OC ?
A. 41.1

Q. What do we get for OCc1cn(-c2ccc(Cl)cc2)nc1-c1ccc(O)cc1 ?
A. 53.6

Q. What do we get for Cc1ccc(N(CC2=NCCN2)c2cccc(O)c2)cc1 ?
A. 97.7

====

Test system: SK-OV-3 ovarian
Experiment: NCI-60 one-dose screen, 48 h (100 = growth as untreated, 0 = no growth, -100 = all killed)
Details: 10 µM unless noted
Method: Growth inhibition of the SK-OV-3 human tumor cell line is measured as a screen for anti-cancer activity. Cells are grown in 96 well plates and exposed to the test compound for 48 hours. Compounds are tested at a single concentration, which is 10^-5 M for most compounds. The reported endpoint is percent growth (GI% or GIPRCNT), where numbers from 0 - 100% represent growth inhibition, and numbers from -100% - 0 represent cell death. For example, a value of 40 represents 60% growth inhibition. […]
This is part of a sample that, as a whole, favours compounds with a hit. Of some 83,000 tested, about 20% had one in any assay. Active and inactive are the calls of the source. How the source made its calls: active means growth percent below 10; inactive means the rest.
measured parameter: growth

Q. Requested read-out: growth. Entry: O=C(N/N=C1\SCC(=O)N1c1ccccc1)c1cc(-c2cc3ccccc3o2)nn1-c1ccccc1
A. 116% (inactive)

Q. What do we get for COc1cc(C(=O)C[n+]2ccccc2)ccc1OC(C)=O ?
A. 97.5% (inactive)

Q. What do we get for CCCCN(CCCC)c1ccc(C(=N)c2ccc(N(C)C)cc2)cc1 ?
A. -7.53% (active)

Q. What do we get for Oc1ccccc1/C=N/c1ccccn1 ?
A. 99.6% (inactive)

Q. What do we get for COc1cccc(-c2nc3sccn3c2-c2ccnc(NCCNC(=O)Nc3cccc(C(F)(F)F)c3)n2)c1 ?
A. 78.6% (inactive)

Q. What do we get for Cc1cc2c(cc1C)N(C(=O)CCl)CCN2C(=O)CCl ?
A. 53% (inactive)

Q. What do we get for O=S(=O)(CCN1CCOCC1)Nc1cncc(-c2ccc3ncnc(Nc4ccc(F)c(Cl)c4)c3c2)c1 ?
A. 33.5% (inactive)

Q. What do we get for CC1(C)Cc2c(Br)c(Br)c(Br)c(OCC(O)CN3CCN(c4ccccn4)CC3)c2O1 (stereo unspecified) ?
A. 102% (inactive)

Q. What do we get for O=C(Nc1ccc(-n2cc(-c3ccncc3)c(-c3ccc(O)c(Cl)c3)n2)cc1)c1cc(C(F)(F)F)cc(C(F)(F)F)c1 ?
A. 84% (inactive)

Q. What do we get for O=C(O)c1ccccc1C(=O)c1ccc(I)cc1 ?
A. 96.4% (inactive)

Q. What do we get for C[C@H]1C=C(C[C@@H](O)CCCCCCCCCC[C@@H](O)[C@H]2CCC(=O)O2)C(=O)O1 ?
A. 110% (inactive)

Q. What do we get for COc1cc(Nc2ncccc2C(=O)Nc2nc3ccc(F)cc3s2)cc(OC)c1OC ?
A. 91.7% (inactive)

Q. What do we get for CCc1ccc(C2=C/C(=C/c3ccc(Cl)cc3)C(=O)N2CCc2ccc(S(N)(=O)=O)cc2)cc1 ?
A. 46% (inactive)

Q. What do we get for O=C(Nc1ccc(-n2ccc3c(NC(=O)c4ccccc4)ncnc32)cc1)c1ccc(Cl)c(C(F)(F)F)c1 ?
A. 65.6% (inactive)

Q. What do we get for C#CCn1c(-c2cc(OC)c(OC)cc2Br)nc(-c2ccccc2)c1-c1ccccc1 ?
A. 16% (inactive)

Q. What do we get for CN(C)c1ccc(/C=c2\s/c(=C\C(=O)C(C)(C)C)[nH]c2=O)cc1 ?
A. 100% (inactive)

Q. What do we get for COC(=O)c1oc2c(C(C)=O)c(OCCCN(C)C)ccc2c1C ?
A. 121% (inactive)

Q. What do we get for CN(C)c1ccc(/C=N/N=C(N)N)cc1 ?
A. 82.5% (inactive)

Q. What do we get for O=c1c2ccccc2[nH]n1Cc1ccc2c(c1)OCO2 ?
A. 112% (inactive)

Q. What do we get for NCC(=O)NS(=O)(=O)OC[C@H]1O[C@@H](n2cnc3c(N)ncnc32)[C@H](O)[C@@H]1O ?
A. 6.28% (active)

Q. What do we get for CCCCOc1c(N)cc(Cl)cc1C(=O)OCCN(CC)CC ?
A. 94.5% (inactive)

====

system: DU-145 prostate; assay: NCI-60 one-dose screen, 48 h; conditions: 10 µM unless noted
The panel holds about 83,000 compounds, 20% with a hit somewhere; the sample as a whole holds those more often. The source made the active and inactive calls. How the source made its calls: active means growth percent below 10; inactive means the rest.
Bench note: report the call from true (1) (active), false (0) (inactive)

Q. // param item: O=c1c2ccccc2sc2c(NCCCNCCO)nc3ccccc3c12 ; yields the recorded call
A. false (0)

Q. What do we get for CCCCOc1nc2ccc(Cl)cc2cc1/C=C/C(=O)/C=C/c1ccc(Cl)cc1 ?
A. false (0)

Q. What do we get for CC(C)(C)NC(C1=CC(C)(C)c2ccccc2C1=O)c1ccccc1 (stereo unspecified) ?
A. true (1)

Q. What do we get for CCC(CC(C)C)Nc1ccc(NC(CC)CC(C)C)cc1 (stereo unspecified) ?
A. false (0)

Q. What do we get for COc1ccc(C2=NN(C(=O)COc3ccc(Cl)cc3)C(O)(c3cc(F)c(Cl)cc3Cl)C2)cc1OC (stereo unspecified) ?
A. true (1)

Q. What do we get for COc1ccc(C2=NN(C(=O)COc3ccc(Cl)cc3)C(O)(c3cc(F)c(Cl)cc3Cl)C2)cc1 (stereo unspecified) ?
A. false (0)

Q. What do we get for O=C1CCC(c2c(O)cc(O)c3c(=O)c(O)c(-c4ccc(O)c(O)c4)oc23)N1 (stereo unspecified) ?
A. false (0)

Q. What do we get for COc1ccc(N)c(S)c1 ?
A. false (0)

Q. What do we get for O=C1C(SCCO)=C(SCCO)C(=O)N1c1ccc(-c2ccccc2)cc1 ?
A. false (0)

Q. What do we get for COc1cc(NC(=O)C#Cc2ccccc2)c(OC)cc1Cl ?
A. false (0)

Q. What do we get for COC(OC)C1(c2ccccc2)NC(=O)NC1=O (stereo unspecified) ?
A. false (0)
